- System: KRAS PDC multicell spheroid viability;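 further: spheroids exposed to compounds for 7 days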
- methodNotes: Anticancer human tumor 825966-067-R-J1-PDC patient-derived colon carcinoma cell line growth inhibition [KRAS2]; active means viability on the fitted dose curve at most 10% of control; inactive means the rest
- experimentalSetup: second compound 0.1 µM; first compound 3.16 µM
I would appreciate it if you answered using one of these outcomes: active, inactive

Below are worked cases with known answers.
>>> classification("COC(=O)c1ccc2c(C(=Nc3ccc(N(C)C(=O)CN4CCN(C)CC4)cc3)c3ccccc3)c(O)[nH]c2c1 + COc1cc2nc(C)nc(NC(C)c3cc(N)cc(C(F)(F)F)c3)c2cc1OC1CCOC1")
"active"
>>> classification("CC(=O)OC12COC1CC(O)C1(C)C(=O)C(O)C3=C(C)C(OC(=O)C(O)C(NC(=O)OC(C)(C)C)c4ccccc4)CC(O)(C(OC(=O)c4ccccc4)C21)C3(C)C (stereo not drawn) + C=CC(=O)N1CCN(c2nc(OCC3CCCN3C)nc3c2CCN(c2cccc4cccc(C)c24)C3)CC1CC#N")
"inactive"
>>> classification("COc1cc2nccc(Oc3ccc(NC(=O)C4(C(=O)Nc5ccc(F)cc5)CC4)cc3)c2cc1OC + CNCc1ccccc1-c1csc(C(C)Nc2nc(C)nc3cc(OC)c(OC)cc23)c1")
"active"
>>> classification("COc1cc(Nc2ncc3c(n2)-c2ccc(Cl)cc2C(c2c(F)cccc2OC)=NC3)ccc1C(=O)O + CNCc1ccccc1-c1csc(C(C)Nc2nc(C)nc3cc(OC)c(OC)cc23)c1")
"inactive"

Next:
## Input Hello, I am checking results. What call was entered for O=C(c1cc(Cc2n[nH]c(=O)c3ccccc23)ccc1F)N1CCN(C(=O)C2CC2)CC1 + C=CC(=O)N1CCN(c2nc(OCC3CCCN3C)nc3c2CCN(c2cccc4cccc(C)c24)C3)CC1CC#N ?
## Output inactive
